biological target: Aβ(1–42) fibrils (Homo sapiens); construct: Monomeric Aβ(1-42) (1 mg: Rockland Immunochemicals, Limerick, PA, Lot #31541); purchased Rockland Immunochemicals, Limerick, PA Lot #31541 (a lot number; no catalogue number given); test: Thioflavin T (ThT) fluorescence competition assay; format: binding; details: Aβ(1–42) fibrils (500 nM), ThT (1.0 μM), 1× PBS pH 7.4, 25 °C; average of fits from at least three independent experiments; read-out: Kd/nM
quantity_kind: Kd (nM)

CCOc1ccc(CCN(C)C(=O)Nc2ccc3c(c2)CCC(=O)N3C)cc1 [E363] ... 20

(1) CCOc1ccccc1OCC(=O)Nc1ccc(-c2ncc3n2CCCC3)cc1 [E570]
(2) COc1cc(F)c(C(C)NC(=O)NCCN2c3ccccc3CC2C)cc1OC (centres unmarked) [E704]
(3) CN(CCCCc1ccccc1)C(=O)Nc1ccc2c(c1)OCC(=O)N2C [E163]
(4) Cc1ccc(C)c2c(C)c(C(=O)N3CCCc4c(OCC(N)=O)cccc43)oc12 [E197]
hey, can you rank those compounds up there by Kd? biggest number first please Answer by writing out the labels in the requested order. 4, 3, 2, 1

====

biological target: Aβ(1–42) fibrils (Homo sapiens, UniProt P05067); construct: Monomeric Aβ(1-42) (1 mg: Rockland Immunochemicals, Limerick, PA, Lot #31541); purchased Rockland Immunochemicals, Limerick, PA Lot #31541 (a lot number; no catalogue number given); experiment: Thioflavin T (ThT) fluorescence competition assay; type: binding; settings: Aβ(1–42) fibrils (500 nM), ThT (1.0 μM), 1× PBS pH 7.4, 25 °C; read-out: –log(Kd/M) (converted)
Sequence (P05067 672-713 limits assumed): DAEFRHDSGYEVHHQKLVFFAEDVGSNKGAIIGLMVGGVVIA
quantity_kind: Kd (nM)

(I) CCOc1ccccc1OCC(=O)Nc1ccc(-c2ncc3n2CCCC3)cc1
(II) CN(CCCCc1ccccc1)C(=O)Nc1ccc2c(c1)OCC(=O)N2C
Lab note: check whether I or II shows the higher recorded Kd. # respond with the chosen item's label II
(II: 158 nM, I: 25.1 nM)

(A) Cc1ccc(C)c2c(C)c(C(=O)N3CCCc4c(OCC(N)=O)cccc43)oc12
(B) CCOc1ccc(CCN(C)C(=O)Nc2ccc3c(c2)CCC(=O)N3C)cc1
// pick min by Kd: A , B # respond with the chosen item's label B
